system under test: His-Tagged hOGA (human O-GlcNAcase) (Homo sapiens (Human))
Sequence (O60502 whole entry): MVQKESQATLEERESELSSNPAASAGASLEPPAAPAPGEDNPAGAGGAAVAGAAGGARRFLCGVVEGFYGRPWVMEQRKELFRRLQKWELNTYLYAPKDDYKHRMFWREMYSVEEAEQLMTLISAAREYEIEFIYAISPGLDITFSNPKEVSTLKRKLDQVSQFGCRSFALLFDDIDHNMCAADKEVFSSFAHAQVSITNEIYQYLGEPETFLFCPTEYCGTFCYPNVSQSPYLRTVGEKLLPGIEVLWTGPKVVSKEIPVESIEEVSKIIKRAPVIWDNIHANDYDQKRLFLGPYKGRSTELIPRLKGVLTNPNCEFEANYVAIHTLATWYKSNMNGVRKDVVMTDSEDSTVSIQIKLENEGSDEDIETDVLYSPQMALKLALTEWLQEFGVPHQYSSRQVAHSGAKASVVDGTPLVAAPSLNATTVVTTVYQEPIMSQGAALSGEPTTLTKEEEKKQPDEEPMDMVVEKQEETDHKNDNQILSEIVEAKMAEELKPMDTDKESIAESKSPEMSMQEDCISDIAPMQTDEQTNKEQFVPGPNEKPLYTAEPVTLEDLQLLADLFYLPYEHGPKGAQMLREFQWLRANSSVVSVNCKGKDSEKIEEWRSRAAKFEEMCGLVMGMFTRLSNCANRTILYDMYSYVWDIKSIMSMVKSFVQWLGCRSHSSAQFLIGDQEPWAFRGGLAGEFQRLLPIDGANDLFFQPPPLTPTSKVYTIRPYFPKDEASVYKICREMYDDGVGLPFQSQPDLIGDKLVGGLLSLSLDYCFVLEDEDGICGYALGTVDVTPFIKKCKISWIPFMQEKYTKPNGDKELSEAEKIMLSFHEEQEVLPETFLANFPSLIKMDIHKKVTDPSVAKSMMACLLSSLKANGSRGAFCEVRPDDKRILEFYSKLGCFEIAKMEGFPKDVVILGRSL
run description: Human O-GlcNAcase enzyme inhibition assay;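 further: reactions contained 20 nM His-tagged hOGA enzyme with 10 µM FL-GlcNAc substrate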
Type: biochemical
conditions: OGA enzyme inhibition assay; FL-GlcNAc substrate, pH 6.5; activity classes defined in μM; read-out: OGA IC50
quantity measured: IC50

These solved cases illustrate the format of a correct answer.
# compound, IC50
records = [
    ("CC(c1ccc2nccnc2c1)N1CCN(c2nnc(CO)s2)CC1 (racemic)", "0.2 to 1 µM"),
    ("CC(c1ccc2nccnc2c1)N1CCN(c2ccc(C3(O)CCOCC3)cn2)CC1 (racemic)", "0.05 to 0.2 µM"),
    ("CC(c1ccc2nccnc2c1)N1CCN(c2ncc(C(O)C(F)(F)F)cn2)CC1 (racemic)", "0.05 to 0.2 µM"),
    ("CC(c1ccc2nccnc2c1)N1CCN(c2nnc(CN(C)C)s2)CC1 (racemic)", "0.2 to 1 µM"),
    ("CC(c1ccc2nccnc2c1)N1CCN(c2ncc(CO)cn2)CC1 (racemic)", "0.05 to 0.2 µM"),
    ("CC(O)c1ccc(N2CCN(C(C)c3ccc4c(c3)OCC4)CC2)nn1 (racemic)", "< 0.05 µM"),
    ("CC(=O)N1CCc2nc(N3CCN(C(C)c4ccc5c(c4)OCC5)CC3)sc2C1 (racemic)", "< 0.05 µM"),
    ("CNC(=O)c1nnc(N2CCN(C(C)c3ccc4c(c3)OCC4)CC2)s1 (racemic)", "< 0.05 µM"),
    ("CC(C)C(O)c1ccc(N2CCN(C(C)c3ccc4nccnc4c3)CC2)nc1 (racemic)", "0.2 to 1 µM"),
    ("Cc1nnc(C2CCN(C(C)c3ccc4nccnc4c3)CC2)o1 (racemic)", "0.2 to 1 µM"),
]

Would you kindly share the measured IC50 for CCOC(=O)c1cnn(C2CCN(C(C)c3ccc4c(c3)OCC4)CC2)c1 (racemic) ?
0.05 to 0.2 µM

Would you kindly share the measured IC50 for CC(c1ccc2c(c1)OCC2)N1CCN(c2ncc(C3(O)CCOC3)cn2)CC1 (racemic) ?
< 0.05 µM
